biological target: CjMTAN (Campylobacter jejuni subsp. jejuni, UniProt Z9IB28FKP7)
pKi: −log10 of the molar value.
Label Y when pKi is at or above 7; otherwise label N.

• CSC[C@H]1N[C@@H](c2c[nH]c3c(N)ncnc23)[C@H](O)[C@@H]1O [MTIA] = Y
• CSC[C@H]1O[C@@H](n2ccc3c(N)ncnc32)[C@H](O)[C@@H]1O [MTT] = N
• Nc1ncnc2c(CN3C[C@H](CO)[C@@H](O)C3)c[nH]c12 [DIA] = N
• Nc1ncnc2c(CN3CC(O)C(CSc4ccc(Cl)cc4)C3)c[nH]c12 (stereo not drawn) [pCPTDIA] = Y
• CCCCSC[C@H]1CN(Cc2c[nH]c3c(N)ncnc23)C[C@@H]1O [BTDIA, BuS-DADMe-ImmA] = Y
• Nc1ncnc2c(CN3CC(O)C(CSc4ccccc4)C3)c[nH]c12 (stereo not drawn) [PhTDIA] = Y

----------
// reported kcat for each item listed
molecular target: CjMTAN (Campylobacter jejuni subsp. jejuni, UniProt Z9IB28FKP7); assay: CjMTAN substrate specificity, steady-state kinetics; format: biochemical; details: substrate of CjMTAN; 25 °C, 50 mM Hepes-KOH pH 7.4
quantity.name: kcat

- Nc1ncnc2c1ncn2[C@@H]1O[C@H](CCC(=O)c2cccc(C(=O)O)c2)[C@@H](O)[C@H]1O [6-amino-6-deoxyfutalosine]: 0.27 ± 0.01 s⁻¹
- Nc1ncnc2c1ncn2[C@@H]1O[C@H](CO)[C@@H](O)[C@H]1O [adenosine]: 0.30 ± 0.01 s⁻¹
- C[C@H]1O[C@@H](n2cnc3c(N)ncnc32)[C@H](O)[C@@H]1O [5′-deoxyadenosine]: 0.92 ± 0.02 s⁻¹
- Nc1ncnc2c1ncn2[C@@H]1O[C@H](CSCC[C@H](N)C(=O)O)[C@@H](O)[C@H]1O [S-5′-Adenosyl-L-homocysteine, S-5′-adenosyl-L-homocysteine]: 0.55 ± 0.03 s⁻¹

----------
molecular target: UniProt Z9IB28FKP7; experiment: CjMTAN substrate specificity, steady-state kinetics; type: biochemical; conditions: substrate of CjMTAN; 25 °C, 50 mM Hepes-KOH pH 7.4
quantity.name: Km (µM)

* C[C@H]1O[C@@H](n2cnc3c(N)ncnc32)[C@H](O)[C@@H]1O [5′-deoxyadenosine] | 21.4
* Nc1ncnc2c1ncn2[C@@H]1O[C@H](CCC(=O)c2cccc(C(=O)O)c2)[C@@H](O)[C@H]1O [6-amino-6-deoxyfutalosine] | 3.5
* Nc1ncnc2c1ncn2[C@@H]1O[C@H](CO)[C@@H](O)[C@H]1O [adenosine] | 7.5
* Nc1ncnc2c1ncn2[C@@H]1O[C@H](CSCC[C@H](N)C(=O)O)[C@@H](O)[C@H]1O [S-5′-Adenosyl-L-homocysteine, S-5′-adenosyl-L-homocysteine] | 12.2

Just for reference, paper PMC6568325 is where these values come from.
